System: NCI-H522
Test: NCI tumour cell line growth inhibition, 48 h
Activity calls are given as the source filed them. Rule as the data show it: active = GI50 up to about 1.1 µM and inactive = higher.
Outcome codes: True (active), False (inactive)

* O=c1c2sc3ccccc3sc=2c(=O)c2c(Cl)c(Cl)c(Cl)c(Cl)c12 | False
* COc1cccc2c1C(=O)c1c(O)c3c(c(O)c1C2=O)C[C@@](O)(C(=O)CO)C[C@@H]3OC1CC(N)CC(C)O1 (stereo not given in full) | True
* C=C/C=C/NC(=O)OCc1ccccc1 | False
* COc1cc(/C=C/C(=O)Oc2ccc(NC(C)=O)cc2)ccc1C(=O)OCc1ccccc1 | False
* O=C1N=C(Nc2ccccc2Cl)N/C1=C\c1ccc(Cl)cc1Cl | False
* CCCC1CC(=O)NC(=O)C1C(=O)OC(C)(C)C (stereo not given) | False
* CCCCCCCCCCCCC/C=C/[C@H]1[C@@H](C(=O)OC)N1[S+]([O-])c1ccc(C)cc1 (stereo not given in full) | False
* COC(=O)c1c(CC#N)cccc1CC#N | False
* Cc1cc(-n2c(/C=C/c3ccc(Cl)cc3)nc3cc(Cl)ccc3c2=O)on1 | False
* Cc1ccc2[nH]c3c(c2c1)C1CCC(C(C)(C)C)CC1C1C(=O)N(c2ccc(Oc4ccccc4)cc2)C(=O)C31 (stereo not given) | False

====

System: NCI-H23
Experiment: NCI tumour cell line growth inhibition, 48 h
Calls of active or inactive are those of the source. Cut-off read from the data, not from the text of the source: active = GI50 up to about 1.1 µM and inactive = higher.
Measurement Label: GI50

• O=C1N=C(Nc2ccccc2Cl)N/C1=C\c1ccc(Cl)cc1Cl = > 100 µM (inactive)
• CC1C/C(=C\c2ccc(O)c(O)c2)C(=O)/C(=C/c2ccc(O)c(O)c2)C1 (stereo unspecified) = 4.14 µM (inactive)
• COc1cc(C)c2c(=O)c3ccccc3n(C)c2c1 = 24.3 µM (inactive)
• O=NN(CCF)C(=O)NC1CCSCC1 = > 100 µM (inactive)
• COc1ccc2c(c1)CCCc1c-2nc2ccccc2c1N = 15.4 µM (inactive)
• CC(=O)OC[C@]1(C(=O)C(O)c2ccoc2)[C@H](C)CC[C@@]23COC(=O)C2=CCC[C@@H]31 (stereo partly specified) = > 10 µM (inactive)
• CS(=O)(=O)c1ccc(/N=C/C=C/Nc2ccc(S(C)(=O)=O)cc2)cc1 = > 100 µM (inactive)
• C=CC(Br)(CBr)CCC(Cl)C(C)C (stereo unspecified) = 2.74 µM (inactive)
• COC(=O)CNC(=O)C(Cc1ccccc1)NC(=O)c1ccc(-c2ccc(Cl)cc2Cl)o1 (stereo unspecified) = 23.7 µM (inactive)
• COc1ccc(-c2[nH]c3ccccc3c2CCNS(=O)(=O)c2ccc(C)cc2)cc1 = > 10 µM (inactive)
• COC(=O)C1[C@@H](C(=O)OC)C(=O)O[C@H]1c1cc(OC)c(OC)c(OC)c1 (stereo partly specified) = > 100 µM (inactive)

====

Tested on: KM12
Assay: NCI tumour cell line growth inhibition, 48 h
Calls of active or inactive are those of the source. Rule as the data show it: active = GI50 up to about 1.1 µM and inactive = higher.
Measurement Label: GI50

• COC(=O)C12CCC(C(F)(F)C1=O)C2(C)C (stereo not given) = > 100 µM (inactive)
• O=c1[nH]cc(NCCCl)c(=O)[nH]1 = > 100 µM (inactive)
• O=[N+]([O-])c1ccc(Nc2nc3ccccc3s2)cc1 = 51.6 µM (inactive)
• COC1/C=C/C(C)C(C(C)C(OC)C(C)CCC(=O)C(C)C(C/C=C/N(C)C=O)OC)OC(=O)C=CC2OC2(C)CC(OC)C(OC)C2=CC(=O)O[C@@H](C(C)C(OC)CC(OC)/C=C/C(C)C(O)C1)[C@H]2O (stereo not given in full) = 0.00708 µM (active)
• NCCc1ccc2c(c1)C(=O)c1c(O)ccc(O)c1C2=O = 4.72 µM (inactive)

All figures here come from ChEMBL document CHEMBL1201862.
